FYI, the data here is from ChEMBL document CHEMBL3769317.

Target: NAD-dependent protein deacetylase sirtuin-1 (Homo sapiens, UniProt Q96EB6)
Sequence (Q96EB6 whole entry, the tested form may be a part): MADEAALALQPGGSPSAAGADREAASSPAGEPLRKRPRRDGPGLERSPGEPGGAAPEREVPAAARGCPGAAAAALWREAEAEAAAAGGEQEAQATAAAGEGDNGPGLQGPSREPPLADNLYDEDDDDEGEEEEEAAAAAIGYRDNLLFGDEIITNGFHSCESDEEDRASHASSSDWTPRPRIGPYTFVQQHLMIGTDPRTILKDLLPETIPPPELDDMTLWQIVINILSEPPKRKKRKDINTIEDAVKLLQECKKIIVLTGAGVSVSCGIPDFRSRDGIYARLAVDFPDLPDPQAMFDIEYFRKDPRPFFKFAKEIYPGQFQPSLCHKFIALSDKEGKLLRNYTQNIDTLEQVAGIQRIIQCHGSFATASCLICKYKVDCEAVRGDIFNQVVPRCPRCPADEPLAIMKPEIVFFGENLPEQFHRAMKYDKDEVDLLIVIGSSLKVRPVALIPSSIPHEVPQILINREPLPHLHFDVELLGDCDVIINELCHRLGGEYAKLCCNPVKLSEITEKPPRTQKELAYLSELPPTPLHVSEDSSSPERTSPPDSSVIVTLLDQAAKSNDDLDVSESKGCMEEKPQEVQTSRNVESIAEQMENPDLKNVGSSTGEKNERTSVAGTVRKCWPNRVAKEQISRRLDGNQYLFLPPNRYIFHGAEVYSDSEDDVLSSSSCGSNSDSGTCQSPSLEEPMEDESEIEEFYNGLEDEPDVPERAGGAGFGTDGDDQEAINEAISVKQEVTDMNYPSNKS
Test: Inhibition of GST-tagged human SIRT1 (133 to 747 amino acids) using ZMAL as substrate after 4 hrs by fluorescence-based microplate reader method
pIC50: −log10 of the molar value.
reported.metric: pIC50

Q) # get_value(readout='pIC50', item= Cc1cc(C)nc(SCC(=O)Nc2ncc(Cc3cccc4ccccc34)s2)n1 )
A) < 4.30

* * *

Biological target: NAD-dependent protein deacetylase sirtuin-2 (Homo sapiens) (UniProt Q8IXJ6)
Sequence (Q8IXJ6 whole entry, the tested form may be a part): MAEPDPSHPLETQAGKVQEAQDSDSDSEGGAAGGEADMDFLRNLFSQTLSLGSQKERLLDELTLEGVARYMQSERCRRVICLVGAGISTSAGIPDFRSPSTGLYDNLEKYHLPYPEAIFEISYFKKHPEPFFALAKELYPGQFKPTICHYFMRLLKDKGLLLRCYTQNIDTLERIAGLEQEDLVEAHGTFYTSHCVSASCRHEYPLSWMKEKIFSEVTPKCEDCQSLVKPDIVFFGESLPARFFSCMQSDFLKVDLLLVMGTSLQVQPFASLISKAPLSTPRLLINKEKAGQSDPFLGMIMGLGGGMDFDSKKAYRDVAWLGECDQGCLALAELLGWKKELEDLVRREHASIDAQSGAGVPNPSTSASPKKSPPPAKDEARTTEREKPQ
Assay: Inhibition of N-terminal his6-tagged human SIRT2 (25 to 389 amino acids) using ZMAL as substrate at 50 uM after 4 hrs by fluorescence-based microplate reader method
Quick rule: inhibition of at least 40% means Criterion met, below that means Criterion not met.

- compound.smiles: "COc1ccc(Cc2cnc(NC(=O)CSc3nc(C)cc(C)n3)s2)cc1"
  assigned.class: "Criterion met"
- compound.smiles: "CCc1cc(CC)nc(SCC(=O)Nc2ncc(Cc3ccc(-c4ccccc4)cc3)s2)n1"
  assigned.class: "Criterion not met"

Q) Would you say Cc1cc(C)nc(SCC(=O)Nc2nc(-c3ccc4ccccc4c3)cs2)n1 shows inhibition at minimum 40%?
A) Criterion not met

Q) Can you check Nc1cc(N)nc(SCC(=O)Nc2ncc(Cc3cccc4ccccc34)s2)n1 next?
A) Criterion not met
